The binders listed here are annotated with their Anti-CD28 Fab signal (phage binding ELISA).
Target: T1, Anti-CD28 Fab (SEQ ID NOs: 696, 697)
T1 construct: In the phage ELISA the Fab was biotinylated and captured on neutravidin coated plates
T1 sequence (VH, as listed by the source, chain 1 of 2): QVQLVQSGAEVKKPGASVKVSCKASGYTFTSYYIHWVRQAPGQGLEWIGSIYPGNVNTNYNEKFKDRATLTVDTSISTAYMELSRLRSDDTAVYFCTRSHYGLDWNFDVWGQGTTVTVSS
T1 sequence (VL, as listed by the source, chain 2 of 2): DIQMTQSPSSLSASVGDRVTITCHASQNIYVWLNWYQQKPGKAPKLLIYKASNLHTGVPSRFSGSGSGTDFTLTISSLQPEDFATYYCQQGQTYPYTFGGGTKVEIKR
Assay: phage ELISA; biotinylated anti-CD28 Fab on neutravidin plate, clonal phage supernatant, anti-M13 HRP detection;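 also: crude supernatants of single phage clones picked after panning were screened for binding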
Reply with just the number.

Here's what some known entries look like.
BINDER	ASSAY_RESULT
YCAGHMPEYIDKCL (tested as crude clonal phage supernatant) [Phage-746]	1.92
YCDGHSAEYLAKCL (tested as crude clonal phage supernatant) [Phage-743]	1.93
YCDGHSPDYIWKCL (tested as crude clonal phage supernatant) [Phage-739]	1.93
YCDGHSPEYMTKCL (tested as crude clonal phage supernatant) [Phage-744]	1.93

Shift focus to the following entry.
Form: binder = YCEGHSMEYMAKCL (tested as crude clonal phage supernatant) [Phage-745] ; Anti-CD28 Fab signal (phage binding ELISA) = 1.92

Data credit: patent US20260242478A1
